biological target: T1, human OT7T175 (metastin receptor) (human, UniProt Q969F8 1-398); assay: FMAT competition with Cy-5-labeled metastin (40-54), hOT7T175-expressed CHO cells
T1 construct: expressed on CHO cells (hOT7T175-expressed CHO cells; hOT7T175/CHO); also called hOT7T175; h0T7T175
T1 sequence (Q969F8 whole entry L364H): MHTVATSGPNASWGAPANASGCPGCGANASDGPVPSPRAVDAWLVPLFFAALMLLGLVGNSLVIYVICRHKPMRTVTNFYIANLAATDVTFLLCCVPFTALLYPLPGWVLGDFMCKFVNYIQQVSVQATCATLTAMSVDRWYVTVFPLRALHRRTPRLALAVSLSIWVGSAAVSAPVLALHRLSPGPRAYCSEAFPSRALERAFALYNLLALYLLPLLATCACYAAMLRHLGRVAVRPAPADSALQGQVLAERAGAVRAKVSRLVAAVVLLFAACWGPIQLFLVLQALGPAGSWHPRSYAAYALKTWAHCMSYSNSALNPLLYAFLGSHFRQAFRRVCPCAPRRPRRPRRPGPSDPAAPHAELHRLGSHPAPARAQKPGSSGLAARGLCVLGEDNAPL
Square brackets hold non-standard residues; d marks the D form. Ends that are not written are not given here. * marks the point of attachment. Propanoyl(3-(3-pyridyl)) = O=C(CCc1cccnc1)*; Phe(4-Cl) = N[C@@H](Cc1ccc(Cl)cc1)C(=O)O; Arg(Me) = CNC(=N)NCCC[C@H](N)C(=O)O; d4Pal = N[C@H](Cc1ccncc1)C(=O)O; Cha = N[C@@H](CC1CCCCC1)C(=O)O; Dab = NCC[C@H](N)C(=O)O; azaGly = NNC(=O)O
Would you mind sorting the entries by IC50 according to these classes? LOW (below 20 nM), MEDIUM (20 nM to below 200 nM), HIGH (200 nM or more)

Check out these entries, answers already filled in.
binder	label
{Propanoyl(3-(3-pyridyl))}-NSF[azaGly]L[Arg(Me)]F-NH2 (SMILES CNC(=N)NCCC[C@H](NC(=O)[C@H](CC(C)C)NC(=O)NNC(=O)[C@H](Cc1ccccc1)NC(=O)[C@H](CO)NC(=O)[C@H](CC(N)=O)NC(=O)CCc1cccnc1)C(=O)N[C@@H](Cc1ccccc1)C(N)=O, also called KiSS322; KiSS1-322) [Compound No. 322: des(1-3)-3-Pyridylpropionyl-[AzaGly7,Arg(Me)9]MS10]	MEDIUM
{3‑Phenylpropionyl}-NSF[azaGly]L[Arg(Me)]F-NH2 [Compound No. 269: des(1-3)-3-Phenylpropionyl-[AzaGly7,Arg(Me)9]MS10]	HIGH
[dY]SNSFGL[Arg(Me)]F-NH2 [Compound No. 226: des(1)-[D-Tyr2,Ser3,Arg(Me)9]MS10]	MEDIUM
YNWNSFGLRY-NH2 [Compound No. 109: [Tyr10]MS10]	MEDIUM
YNWNSFGL[Dab]F-NH2 [Compound No. 313: [Dab9]MS10]	HIGH

Query string: Category of [dY][dN][Cha]NSF[azaGly]L[Arg(Me)]F-NH2 [Compound No. 283: [D-Tyr1,D-Asn2,Cha3,AzaGly7,Arg(Me)9]MS10] :
Result string: LOW

Query string: Returns: class label. Input: [dY]N[Phe(4-Cl)]NSF[azaGly]L[Arg(Me)]F-NH2 [Compound No. 249: [D-Tyr1,Phe(4Cl) 3,AzaGly7,Arg(Me)9]MS10]
Result string: MEDIUM

Query string: Sort [dY]INSF[azaGly]L[Arg(Me)]F-NH2 [Compound No. 240: des(1)-[D-Tyr2,Ile3,AzaGly7,Arg(Me)9]MS10] into one of the categories.
Result string: LOW

Query string: Category of [dY][d4Pal]NSF[azaGly]L[Arg(Me)]F-NH2 (N-terminus assumed; SMILES CNC(=N)NCCC[C@H](NC(=O)[C@H](CC(C)C)NC(=O)NNC(=O)[C@H](Cc1ccccc1)NC(=O)[C@H](CO)NC(=O)[C@H](CC(N)=O)NC(=O)[C@@H](Cc1ccncc1)NC(=O)[C@H](N)Cc1ccc(O)cc1)C(=O)N[C@@H](Cc1ccccc1)C(N)=O, also called KiSS305; KiSS1-305) [Compound No. 305: des(1)-[D-Tyr2,D-Pya(4) 3,AzaGly7,Arg(Me)9]MS10] :
Result string: LOW

Query string: Record [dN][dW]NSFGL[Arg(Me)]F-NH2 [Compound No. 225: des(1)-[D-Asn2,D-Trp3,Arg(Me)9]MS10] — which class?
Result string: HIGH
